molecular target: OtaS/OtaL ADP-Glc PPase (Ostreococcus tauri, UniProt A0A090M9E5+A0A096P9X2, A0A096P9X2:L24M/A0A090M9E5:K508R); test: ADP-[…]Glc formation, activation curve, Hill fit; settings: allosteric activator; 50 mM HEPPS pH 8.0, 10 mM MgCl2, 1 mM Glc1P, 2.5 mM ATP, 37°C, no Pi; read-out: A0.5
Sequence (A0A090M9E5 entry or part of it K508R, one chain of several): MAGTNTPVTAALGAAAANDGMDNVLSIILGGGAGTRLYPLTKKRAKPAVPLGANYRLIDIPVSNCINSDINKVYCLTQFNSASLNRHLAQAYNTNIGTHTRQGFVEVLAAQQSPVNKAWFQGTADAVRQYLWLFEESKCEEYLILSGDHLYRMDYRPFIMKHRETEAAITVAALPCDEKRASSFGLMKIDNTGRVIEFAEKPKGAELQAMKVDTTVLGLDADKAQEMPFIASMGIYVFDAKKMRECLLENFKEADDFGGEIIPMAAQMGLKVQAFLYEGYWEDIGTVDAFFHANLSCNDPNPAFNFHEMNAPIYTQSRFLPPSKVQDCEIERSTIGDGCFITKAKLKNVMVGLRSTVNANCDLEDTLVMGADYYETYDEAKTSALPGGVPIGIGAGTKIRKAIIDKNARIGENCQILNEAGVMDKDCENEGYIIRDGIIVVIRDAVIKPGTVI
MEASURED QUANTITY: EC50 (µM)

COMPOUND	RECORDED MEASUREMENT
O=C(O)[C@H](O)COP(=O)(O)O [3PGA]	1600

====

target: StuSK441A/OtaL hybrid heterotetramer (Solanum tuberosum; Ostreococcus tauri, UniProt A0A096P9X2+P23509, A0A096P9X2:R476K/P23509:K511A, form not given); construct: hybrid heterotetramer: potato tuber small subunit K441A co-expressed with O. tauri large subunit in E. coli AC70R1-504; purified; assay: ADP-[…]Glc formation, activation curve, Hill fit; settings: read-out: A0.5; allosteric activator; 50 mM HEPPS pH 8.0, 10 mM MgCl2, 1 mM Glc1P, 2.5 mM ATP, 2 mM DTT, 37°C, no Pi
Sequence (P23509 73-521 K511A, form open): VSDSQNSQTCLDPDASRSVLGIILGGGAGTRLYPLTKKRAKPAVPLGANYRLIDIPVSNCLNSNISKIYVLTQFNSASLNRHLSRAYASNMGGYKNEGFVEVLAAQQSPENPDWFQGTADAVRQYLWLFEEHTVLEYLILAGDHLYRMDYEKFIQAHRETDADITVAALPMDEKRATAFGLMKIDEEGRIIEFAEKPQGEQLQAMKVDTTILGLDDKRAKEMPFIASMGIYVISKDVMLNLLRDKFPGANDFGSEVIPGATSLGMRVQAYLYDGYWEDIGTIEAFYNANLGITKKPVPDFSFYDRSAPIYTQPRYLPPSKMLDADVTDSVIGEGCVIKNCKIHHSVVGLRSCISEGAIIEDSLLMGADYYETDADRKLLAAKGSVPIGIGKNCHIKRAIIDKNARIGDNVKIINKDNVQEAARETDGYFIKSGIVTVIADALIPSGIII
Sequence (A0A096P9X2 entry or part of it R476K, form open): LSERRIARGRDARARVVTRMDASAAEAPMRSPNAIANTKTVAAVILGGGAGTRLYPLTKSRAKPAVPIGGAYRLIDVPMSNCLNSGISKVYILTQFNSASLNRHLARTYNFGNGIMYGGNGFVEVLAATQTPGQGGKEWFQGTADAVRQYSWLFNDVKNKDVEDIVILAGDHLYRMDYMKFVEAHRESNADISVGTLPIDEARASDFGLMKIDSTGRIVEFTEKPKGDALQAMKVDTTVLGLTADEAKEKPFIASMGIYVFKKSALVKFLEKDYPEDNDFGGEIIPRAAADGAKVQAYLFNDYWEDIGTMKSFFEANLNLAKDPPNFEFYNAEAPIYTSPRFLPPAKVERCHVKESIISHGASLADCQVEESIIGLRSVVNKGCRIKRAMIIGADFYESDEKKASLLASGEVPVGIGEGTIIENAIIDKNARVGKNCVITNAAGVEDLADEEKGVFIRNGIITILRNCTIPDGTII

MOL SMILES	EC50
O=C(O)[C@H](O)COP(=O)(O)O	400 µM

====

Target: OtaS/OtaL ADP-Glc PPase (Ostreococcus tauri, UniProt A0A090M9E5+A0A096P9X2, A0A096P9X2:L24M)
Sequence (A0A090M9E5 entry or part of it): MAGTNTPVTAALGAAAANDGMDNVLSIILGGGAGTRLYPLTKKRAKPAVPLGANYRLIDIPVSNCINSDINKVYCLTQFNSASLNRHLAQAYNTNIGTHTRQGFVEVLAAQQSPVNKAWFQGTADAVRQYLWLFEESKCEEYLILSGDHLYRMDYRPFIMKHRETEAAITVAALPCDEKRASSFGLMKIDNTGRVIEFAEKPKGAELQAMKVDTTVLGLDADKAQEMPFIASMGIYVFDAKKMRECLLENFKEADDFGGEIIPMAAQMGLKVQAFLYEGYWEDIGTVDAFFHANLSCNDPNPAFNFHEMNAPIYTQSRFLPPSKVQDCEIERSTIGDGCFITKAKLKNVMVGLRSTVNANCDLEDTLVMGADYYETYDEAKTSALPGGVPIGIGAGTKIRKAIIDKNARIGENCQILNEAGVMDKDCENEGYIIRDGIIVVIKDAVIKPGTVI
Sequence (A0A096P9X2 entry or part of it L24M): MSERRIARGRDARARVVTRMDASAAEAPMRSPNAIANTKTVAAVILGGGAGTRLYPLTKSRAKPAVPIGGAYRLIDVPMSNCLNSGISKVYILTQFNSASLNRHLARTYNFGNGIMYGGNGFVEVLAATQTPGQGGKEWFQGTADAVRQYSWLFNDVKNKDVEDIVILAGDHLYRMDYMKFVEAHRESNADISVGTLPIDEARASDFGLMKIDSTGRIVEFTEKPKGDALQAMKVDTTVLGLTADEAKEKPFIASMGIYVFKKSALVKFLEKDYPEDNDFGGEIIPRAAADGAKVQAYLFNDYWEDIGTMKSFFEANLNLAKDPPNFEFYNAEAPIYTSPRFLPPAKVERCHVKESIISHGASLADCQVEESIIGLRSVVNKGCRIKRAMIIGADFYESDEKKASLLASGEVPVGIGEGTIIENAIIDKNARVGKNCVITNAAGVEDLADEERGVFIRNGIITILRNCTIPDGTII
Settings: read-out: I0.5; allosteric inhibitor; 3PGA present at its A0.5 (0.61 mM); 50 mM HEPPS pH 8.0, 10 mM MgCl2, 1 mM Glc1P, 2.5 mM ATP, 37°C
Excerpt: ADP-Glc PPase activity, inhibition curve, Hill fit on OtaS/OtaL ADP-Glc PPase
pIC50: −log10 of the molar value.
MEASURED QUANTITY: pIC50

MOL SMILES	RECORDED MEASUREMENT
O=P(O)(O)O	3.75

====

biological target: OtaS/OtaL ADP-Glc PPase (Ostreococcus tauri, UniProt A0A090M9E5+A0A096P9X2, A0A096P9X2:L24M/A0A090M9E5:K508R); settings: read-out: I0.5; allosteric inhibitor; 3PGA present at its A0.5 (1.6 mM); 50 mM HEPPS pH 8.0, 10 mM MgCl2, 1 mM Glc1P, 2.5 mM ATP, 37°C

COMPOUND	MEASUREMENT UNITS	IC50
O=P(O)(O)O [Pi]	µM	1600

====

target: OtaS/OtaL ADP-Glc PPase (Ostreococcus tauri, UniProt A0A090M9E5+A0A096P9X2, A0A096P9X2:R476K/A0A090M9E5:K508R, form not given); construct: heterotetramer alpha2beta2, co-expressed from pMAB5/OtaS and pMAB6/OtaL in E. coli AC70R1-504; DEAE and Resource PHE purification, no tag mentioned; test: ADP-[…]Glc formation, activation curve, Hill fit; settings: allosteric activator; 50 mM HEPPS pH 8.0, 10 mM MgCl2, 1 mM Glc1P, 2.5 mM ATP, 37°C, no Pi; read-out: A0.5
Sequence (A0A096P9X2 entry or part of it R476K, form open): as the sequence (A0A096P9X2 entry or part of it L24M) above, with M1L, R453K counted along it
Sequence (A0A090M9E5 entry or part of it K508R, form open): as the sequence (A0A090M9E5 entry or part of it) above, with K443R counted along it
pEC50: −log10 of the molar value.

COMPOUND	pEC50
O=C(O)[C@H](O)COP(=O)(O)O [3PGA]	3.13
